molecular target: ABCB1 (Homo sapiens, UniProt P08183); test: JC-1 efflux inhibition dose response, flow cytometry, Jurkat-DNR cells
Sequence (P08183 whole entry): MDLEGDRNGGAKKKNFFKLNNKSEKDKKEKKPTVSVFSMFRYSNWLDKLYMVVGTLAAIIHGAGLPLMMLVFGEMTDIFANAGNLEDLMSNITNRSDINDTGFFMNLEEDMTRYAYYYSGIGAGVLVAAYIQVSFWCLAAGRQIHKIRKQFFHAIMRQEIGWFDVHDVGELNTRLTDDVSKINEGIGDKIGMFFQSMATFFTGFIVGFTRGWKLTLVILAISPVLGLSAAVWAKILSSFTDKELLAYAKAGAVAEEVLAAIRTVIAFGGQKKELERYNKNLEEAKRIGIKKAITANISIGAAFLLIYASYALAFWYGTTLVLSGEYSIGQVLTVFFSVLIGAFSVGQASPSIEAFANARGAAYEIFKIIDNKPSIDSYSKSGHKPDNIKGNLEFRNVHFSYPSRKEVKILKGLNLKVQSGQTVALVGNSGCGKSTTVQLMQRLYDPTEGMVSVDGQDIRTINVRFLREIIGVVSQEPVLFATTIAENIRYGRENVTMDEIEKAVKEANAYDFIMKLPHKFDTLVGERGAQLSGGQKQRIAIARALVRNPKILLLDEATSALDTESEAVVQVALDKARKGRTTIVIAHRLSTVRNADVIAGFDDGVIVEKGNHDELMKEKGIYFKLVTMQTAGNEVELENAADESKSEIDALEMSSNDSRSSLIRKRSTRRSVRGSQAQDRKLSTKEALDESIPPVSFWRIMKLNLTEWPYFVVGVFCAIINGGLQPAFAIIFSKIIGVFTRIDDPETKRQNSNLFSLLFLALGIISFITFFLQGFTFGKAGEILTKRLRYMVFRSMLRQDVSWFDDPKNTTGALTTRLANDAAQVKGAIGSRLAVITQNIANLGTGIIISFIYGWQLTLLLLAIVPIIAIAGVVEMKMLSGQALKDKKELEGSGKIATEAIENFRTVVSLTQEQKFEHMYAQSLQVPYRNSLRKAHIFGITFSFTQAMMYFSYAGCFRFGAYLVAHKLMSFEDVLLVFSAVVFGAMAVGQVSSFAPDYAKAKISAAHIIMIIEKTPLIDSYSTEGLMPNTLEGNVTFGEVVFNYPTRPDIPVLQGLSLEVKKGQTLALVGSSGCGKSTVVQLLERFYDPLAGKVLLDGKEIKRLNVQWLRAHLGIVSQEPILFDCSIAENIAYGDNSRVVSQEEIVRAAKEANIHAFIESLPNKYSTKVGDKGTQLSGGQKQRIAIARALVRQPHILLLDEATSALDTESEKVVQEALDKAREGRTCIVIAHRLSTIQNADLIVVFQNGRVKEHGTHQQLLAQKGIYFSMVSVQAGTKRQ
assay.metric: pEC50
Scale for pEC50: -log10 of concentration given in mol/L; no unit attached.

Supply reported pEC50 belonging to this compound: O=C(c1ccoc1)N1CCN(c2cc(-c3ccco3)nc3cc(-c4ccccc4)nn23)CC1
5.33

---

// selectivity ratio at 30 min lookup, one value per entry
molecular target: ABCB1 / ABCG2 (Homo sapiens); experiment: JC-1 efflux inhibition dose response, flow cytometry, Ig-MXP3 cells; conditions: human, probe JC-1 (1 µM), ~Fold G2 Selective (B1/G2), quotient of average ABCB1 IC50 and average ABCG2 IC50, efflux assay
Sequence (Q9UNQ0 whole entry): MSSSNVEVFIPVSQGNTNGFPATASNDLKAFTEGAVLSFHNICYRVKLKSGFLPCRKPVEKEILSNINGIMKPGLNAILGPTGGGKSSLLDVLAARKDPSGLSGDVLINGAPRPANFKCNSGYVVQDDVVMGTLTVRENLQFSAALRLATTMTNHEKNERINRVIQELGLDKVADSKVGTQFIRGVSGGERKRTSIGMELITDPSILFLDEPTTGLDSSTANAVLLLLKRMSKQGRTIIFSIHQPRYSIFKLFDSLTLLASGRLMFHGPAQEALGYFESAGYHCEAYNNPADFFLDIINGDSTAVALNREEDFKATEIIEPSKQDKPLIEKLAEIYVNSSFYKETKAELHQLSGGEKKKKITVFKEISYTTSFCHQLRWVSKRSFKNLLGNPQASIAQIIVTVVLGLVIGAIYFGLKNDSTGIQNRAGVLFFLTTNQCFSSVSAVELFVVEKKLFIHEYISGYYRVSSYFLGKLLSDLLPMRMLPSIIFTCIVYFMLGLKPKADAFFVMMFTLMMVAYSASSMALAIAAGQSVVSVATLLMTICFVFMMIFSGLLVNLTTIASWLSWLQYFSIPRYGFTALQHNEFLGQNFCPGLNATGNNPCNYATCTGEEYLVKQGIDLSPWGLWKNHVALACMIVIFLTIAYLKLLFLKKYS
Lab note: jot down the number only; don't add units.

INSERT INTO results (structure_string, value_observed) VALUES
  ('O=C(c1ccoc1)N1CCN(c2cc(-c3ccccc3)nc3cc(-c4ccc(Br)cc4)nn23)CC1', 1.7),
  ('O=C(c1ccoc1)N1CCN(c2cc(-c3ccccc3F)nc3cc(-c4ccccc4)nn23)CC1', 10),
  ('Cc1ccc(-c2cc3nc(-c4ccco4)cc(N4CCN(C(=O)c5ccoc5)CC4)n3n2)cc1', 2.2),
  ('O=C(c1ccoc1)N1CCN(c2cc(-c3cccnc3)nc3cc(-c4cccc(Cl)c4)nn23)CC1', 2.9),
  ('C#Cc1cc(N2CCN(C(=O)c3ccoc3)CC2)n2nc(-c3cccc(Cl)c3)cc2n1', 4.3),
  ('O=C(c1cccc(Cl)c1)N1CCN(c2cc(-c3ccccc3)nc3cc(-c4cccc(Cl)c4)nn23)CC1', 1.4);

Supply reported selectivity ratio at 30 min belonging to this compound: O=C(c1ccoc1)N1CCCN(c2cc(-c3ccco3)nc3cc(-c4ccccc4)nn23)C1
8.5

Supply reported selectivity ratio at 30 min belonging to this compound: Cc1cc(N2CCN(C(=O)c3ccoc3)CC2)n2nc(-c3ccccc3)cc2n1
2.2

---

tested on: ABCB1 over-expressing Jurkat-DNR cells; assay: Chemoreversal assay: potentiation of daunorubicin (DNR) killing; format: cell-based; conditions: values in nM, read-out: chemoreversal (CR50) ABCB1
assay.metric: EC50
Field note: include the unit after the figure.

Supply reported EC50 belonging to this compound: COc1cc2c(cc1OC)CN(CCc1ccc(NC(=O)c3cccc(/C=c4\[nH]c(=O)/c(=C/c5ccccc5)n(C)c4=O)c3)cc1)CC2 [Compound 2, reference compound]
10 nM

---

test system: Ig-MXP3 cells; experiment: Direct cytotoxicity (Toxic Dose 50) without chemotherapeutic; format: cell-based; conditions: Ig-MXP3 cells, inhibitor without chemotherapeutic
// TD50 ABCG2 lookup, one value per entry

Here is how some compounds turned out for TD50 ABCG2.
INSERT INTO assay_data (compound, value_observed) VALUES
  ('O=C(c1ccoc1)N1CCN(c2cc(-c3ccoc3)nc3cc(-c4ccccc4)nn23)CC1 [Compound 61]', '18.30 µM'),
  ('COc1cccc(C(=O)N2CCN(c3cc(-c4ccccc4)nc4cc(-c5cccc(Cl)c5)nn34)CC2)c1 [Compound 15]', '>100 µM');

Give TD50 ABCG2 for this entry on Ig-MXP3 cells: O=C(Cc1ccccc1)N1CCN(c2cc(-c3ccccc3)nc3cc(-c4cccc(Cl)c4)nn23)CC1 [Compound 24]
>100 µM

Give TD50 ABCG2 for this entry on Ig-MXP3 cells: COc1cccc(-c2cc3nc(-c4ccco4)cc(N4CCN(C(C)=O)CC4)n3n2)c1 [Compound 88]
>100 µM
